Values compiled from patent US20150368338A1.

# experimentalSystem: T1, IFN-αG (human, UniProt P01569 24-189)
# T1 construct: also called IFN-α5; alpha G
# experimentSummary: ProteOn, one antigen concentration
reportedEndpoint: pKd
// pKd: -log10(molar conc.)

pKd measured on IFWM3346 (antibody, V domains shown, VH IFWH624, VL IFWL1001; converted mAb; also called IFWB3081) VH: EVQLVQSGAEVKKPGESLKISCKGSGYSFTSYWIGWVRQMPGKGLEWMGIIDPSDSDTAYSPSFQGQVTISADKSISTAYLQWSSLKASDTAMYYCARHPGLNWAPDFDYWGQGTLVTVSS VL: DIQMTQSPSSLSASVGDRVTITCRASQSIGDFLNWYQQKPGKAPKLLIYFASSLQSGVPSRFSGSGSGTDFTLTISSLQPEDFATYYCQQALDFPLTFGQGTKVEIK = 10.07

For IFWM3304 (antibody, V domains shown, VH IFWH591, VL IFWL997; converted mAb; also called IFWB3039) VH: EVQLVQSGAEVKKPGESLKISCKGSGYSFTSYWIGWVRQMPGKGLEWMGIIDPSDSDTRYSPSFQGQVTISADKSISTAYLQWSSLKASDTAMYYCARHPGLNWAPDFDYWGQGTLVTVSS VL: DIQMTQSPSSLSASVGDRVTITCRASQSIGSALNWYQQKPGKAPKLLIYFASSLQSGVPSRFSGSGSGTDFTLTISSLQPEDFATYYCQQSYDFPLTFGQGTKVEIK the binder record lists pKd as 10.43

# pKd (binder: IFWM3316 (antibody, V domains shown, VH IFWH591, VL IFWL1022; converted mAb; also called IFWB3051) VH: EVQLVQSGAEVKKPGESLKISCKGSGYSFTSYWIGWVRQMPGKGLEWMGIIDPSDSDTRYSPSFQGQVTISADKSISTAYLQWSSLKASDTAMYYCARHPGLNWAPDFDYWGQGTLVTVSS VL: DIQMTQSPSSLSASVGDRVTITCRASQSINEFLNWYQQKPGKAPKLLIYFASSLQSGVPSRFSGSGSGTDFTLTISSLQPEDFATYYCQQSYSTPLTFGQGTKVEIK ) is 10.06
